# tested_system: T1, cyclic (biotinylated) ABCB5 peptide (human, disulfide 1-18)
# T1 construct: immobilised at 200 nM on streptavidin-precoated plates; also called cyclic ABCB5 peptide
# T1 peptide: Biotin-CRFGAYLIQAGRMTPEGC
# assay_summary: cyclic biotinylated peptide ELISA (200 nM peptides), broad range of mAb concentrations, curve fit, OD 450 nm
Bridge positions count the residues as written; N and C are the ends. Ends that are not written are not given here. * marks the point of attachment. Biotin = O=C1N[C@H]2[C@H](CS[C@H]2CCCCC(=O)*)N1
readout_type: Bmax
One number for each entry.

Solved cases (4 shown):
Give its Bmax value. Item: ABCB5-Ab101 (antibody, human IgG1, kappa, V domains shown, Fully human monoclonal IgG1 kappa) VH: QVQLVQSGAEVKKPGASVKVSCKASGYTFTSYYMHWVRQAPGQGLEWMGIINPSGGSTSYAQKFQGRVTMTRDTSTSTVYMELSSLRSEDTAVYYCARDQAVTGTAYYYYYGMDVWGQGTTVTVSS VL: EIVLTQSPGTLSLSPGERATLSCRASQSVNSNYLAWYQQKPGQAPRLLIYGTSSRATGIPDSFSGSGSGTDFTLTISRLEPEDFAVYYCQQFGSSPLTFGGGTKVEIKR
3.83

Give its Bmax value. Item: ABCB5-Ab44 (antibody, V domains shown, also called A44; F01) VH: QVQLVQSGAEVKKPGASVKVSCKASGYTFTSYYMHWVRQAPGQGLEWMGIINPSGGSTSYAQKFKGRVTMTRDTSTSTVYMELSSLRSEDTAVYYCARDQAVTGTAYYYYYGMDVWGQGTTVTVSS VL: EIVLTQSPGTLSLSPGERATLSCRASQSVNSNYLAWYQQKPGQAPRLLIYGTSSRATGIPDSFSGSGSGTDFTLTISRLEPEDFAVYYCQQFGSSPLTFGGGTKVEIK
3.99

Give its Bmax value. Item: ABCB5-Ab43 (antibody, V domains shown) VH: QVQLVQSGAEVKKPGASVKVSCKASGYTFTSYYMHWVRQSPGQGLEWMGIINPSGGSTSYAQKFQGRVTMTRDTSTSTVYMELSSLRSEDTAVYYCARDQAVTGTAYYYYYGMDVWGQGTTVTVSS VL: EIVLTQSPGTLSLSPGERATLSCRASQSVNSKYLAWYQQKPGQAPRLLIYGTSSRATGIPDSFSGSGSGTDFTLTISRLEPEDFAVYYCQQFGSSPLTFGGGTKVEIK
3.77

Give its Bmax value. Item: ABCB5-Ab42 (antibody, V domains shown, detection was with an anti-human secondary antibody) VH: QVQLVQSGAEVKKPGASVKVSCKTSGYTFTSYYMHWVRQSPGQGLEWMGIINPSGGSTSYAQKFQGRVTMTRDTSTSTVYMELSSLRSEDTAVYYCARDQAVTGTAYYYYYGMDVWGQGTTVTVSS VL: EIVLTQSPGTLSLSPGERATLSCRASLSVNSNYLAWYQQKPGQAPRLLIYGTSSRATGIPDSFSGSGSGTDFTLTISRLEPEDFAVYYCQQFGSSPLTFGGGTKVEIK
4.09

Moving on to the next binder.
Give its Bmax value. Item: ABCB5-Ab45 (antibody, V domains shown) VH: QVQLVQSGAEVKKPGASVKVSCKASGYTFTNYYMHWVRQAPGQGPEWMGIINPSGGSTSYAQKFQGRVTMTRDTSTSTVYMELSSLRSEDTAVYYCARDLAVTGTAYYYYYGMDVWGQGTTVTVSS VL: EFVLTQSPGTLSLSPGERATLSCRASQSVNSNYLAWYQQKPGQAPRLLIYGTSSRATGIPDSFSGSGSGTDFTLTISRLEPEDFAVYYCQQFGSSPLTFGGGTKVEIK
3.71
